- TARGET: human MRGPRD (Homo sapiens, UniProt Q8TDS7)
- Sequence (Q8TDS7 whole entry): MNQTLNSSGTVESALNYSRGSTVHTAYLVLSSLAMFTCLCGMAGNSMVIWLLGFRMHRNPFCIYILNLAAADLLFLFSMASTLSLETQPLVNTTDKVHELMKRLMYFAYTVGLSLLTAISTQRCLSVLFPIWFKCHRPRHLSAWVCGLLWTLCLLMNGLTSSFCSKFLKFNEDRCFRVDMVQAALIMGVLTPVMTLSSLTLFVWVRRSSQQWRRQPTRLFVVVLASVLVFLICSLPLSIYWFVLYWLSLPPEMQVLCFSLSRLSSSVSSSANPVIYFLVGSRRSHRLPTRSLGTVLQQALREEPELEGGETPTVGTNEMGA
- ASSAY_NAME: MRGPRD antagonist activity, IP-One HTRF assay in CHO cells stably expressing human MRGPRD (versus 100 μM β-Alanine agonist)
MEASUREMENT_TYPE: IC50

Sample records with IC50:
[
  {
    "COMPOUND": "Cc1cc(NC(=O)c2nnn(-c3ccc(-c4ccc(C#N)c(F)c4)cc3)c2C2CC2)ccn1 [Compound 15-2]",
    "IC50": "100 to 500 nM"
  },
  {
    "COMPOUND": "O=C(Nc1ccncc1)c1nnn(-c2ccc(-c3cccc(C4CCCCC4)c3)cc2)c1C1CC1 [Compound 7-166]",
    "IC50": "1000 to 3000 nM"
  },
  {
    "COMPOUND": "CC(=O)c1ccc(-c2cccc(-n3nnc(C(=O)Nc4ccncc4)c3C3CC3)c2)cc1C [Compound 7-249]",
    "IC50": "500 to 1000 nM"
  }
]

Ask: Value lookup for IC50; key = O=C(Nc1ccnc2[nH]ncc12)c1nnn(-c2ccc(-c3ccccc3)cc2)c1C1CC1 [Compound 14-29]
Result: 1000 to 3000 nM

Ask: Here is the next compound: Cc1ccc(CNC(=O)c2nnn(-c3cccc(-c4ccn(C)n4)c3)c2C2CC2)cn1 [Compound 7-332]
Result: > 3000 nM

Ask: Here is the next compound: Cc1cc(NC(=O)c2nnn(-c3ccc(-c4ccc(C#N)cc4)cc3)c2C(C)C)ccn1 [Compound 17-28]
Result: 500 to 1000 nM

Ask: Here is the next compound: CC(C)n1cc(CNC(=O)c2nnn(-c3ccc(-c4ccccc4)cc3)c2C2CC2)cn1 [Compound 14-32]
Result: 1000 to 3000 nM

Ask: Here is the next compound: Cc1ccccc1-c1ccc(-n2nnc(C(=O)Nc3ccncc3)c2C2CC2)cc1 [Compound 7-96]
Result: 100 to 500 nM

* * *

- TARGET: human MRGPRD (Homo sapiens, UniProt Q8TDS7)
- ASSAY_NAME: MRGPRD antagonist activity, IP-One HTRF assay in CHO cells stably expressing human MRGPRD (versus 100 μM β-Alanine agonist)
Recorded IC50 by entry

Sample records with IC50:
[
  {
    "COMPOUND": "O=C(Nc1ccncc1)c1nnn(-c2cccc(-c3cnn(C4CCCC4)c3)c2)c1C1CC1",
    "IC50": "500 to 1000 nM"
  },
  {
    "COMPOUND": "Cc1cc(-c2ccc(-n3nnc(C(=O)Nc4ccncc4)c3C3CC3)cc2)c(C)s1",
    "IC50": "500 to 1000 nM"
  },
  {
    "COMPOUND": "Cc1[nH]ncc1CNC(=O)c1nnn(-c2ccc(-c3ccccc3)cc2)c1C1CC1",
    "IC50": "> 3000 nM"
  },
  {
    "COMPOUND": "Cn1nc(-c2ccc(-n3nnc(C(=O)Nc4ccncc4)c3C3CC3)cc2)cc1N",
    "IC50": "> 3000 nM"
  },
  {
    "COMPOUND": "O=C(Nc1ccncc1)c1nnn(-c2ccc(-c3cccc(O)c3)cc2)c1C1CC1",
    "IC50": "1000 to 3000 nM"
  }
]

Ask: Value lookup for IC50; key = CC(C)C(NC(=O)c1nnn(-c2ccc(-c3ccccc3)cc2)c1C1CC1)c1cn[nH]c1 (stereo not drawn)
Result: > 3000 nM

Ask: Here is the next compound: CCn1cc(CNC(=O)c2nnn(-c3ccc(-c4ccc(C#N)cc4)cn3)c2C(C)C)cn1
Result: 100 to 500 nM

Ask: Here is the next compound: Cc1cc(NC(=O)c2nnn(-c3ccc(-c4ccc(C#N)cc4)cn3)c2C(C)C)ccn1
Result: 100 to 500 nM

Ask: Here is the next compound: COc1cc(C)ccc1-n1nnc(C(=O)Nc2ccncc2)c1C1CC1
Result: 500 to 1000 nM

* * *

- TARGET: human MRGPRD (Homo sapiens)
- ASSAY_NAME: MRGPRD antagonist activity, IP-One HTRF assay in CHO cells stably expressing human MRGPRD (versus 100 μM β-Alanine agonist)
MEASUREMENT_TYPE: IC50

Ask: Value lookup for IC50; key = N#Cc1ccc(-c2cccc(-n3nnc(C(=O)NC4(c5cccnc5)CC4)c3C3CC3)c2)cc1
Result: > 3000 nM

Ask: Here is the next compound: Cc1ccc(-n2nnc(C(=O)Nc3ccncc3)c2C2CC2)cc1-c1cnn(C(C)C)c1
Result: 500 to 1000 nM

Ask: Here is the next compound: COc1cc(-c2ccc(C#N)cc2)ccc1-n1nnc(C(=O)Nc2ccnc(C)c2)c1C(C)C
Result: 100 to 500 nM

Ask: Here is the next compound: Cc1ccc(C2(NC(=O)c3nnn(-c4ccc(-c5c(C)nn(C)c5C)cc4)c3C3CC3)CC2)cn1
Result: 1000 to 3000 nM

Ask: Here is the next compound: CC(NC(=O)c1nnn(-c2ccc(-c3ccccc3)cc2)c1C1CC1)c1cncnc1 (stereo not drawn)
Result: > 3000 nM

Ask: Here is the next compound: O=C(Nc1ccncc1)c1nnn(C2CCCC2)c1C1CC1
Result: 1000 to 3000 nM

Ask: Here is the next compound: Cc1ccc(C2(NC(=O)c3nnn(-c4ccc(-c5c(C)nn(-c6ccccc6)c5C)cc4)c3C3CC3)CC2)cn1
Result: < 100 nM

Ask: Here is the next compound: Cc1cc(NC(=O)c2nnn(-c3ccc(-c4c(C)nn5ccccc45)cc3)c2C2CC2)ccn1
Result: < 100 nM

Ask: Here is the next compound: CCc1cc(-n2nnc(C(=O)Nc3ccncc3)c2C2CC2)ccc1C
Result: 500 to 1000 nM

Ask: Here is the next compound: COc1ccc(-c2cccc(-n3nnc(C(=O)Nc4ccncc4)c3C3CC3)c2)cc1C
Result: 500 to 1000 nM

Ask: Here is the next compound: Cn1ccc(-c2ccc(-n3nnc(C(=O)Nc4ccncc4)c3C3CC3)cc2)c1
Result: 100 to 500 nM

* * *

- TARGET: human MRGPRD (Homo sapiens, UniProt Q8TDS7)
- ASSAY_NAME: MRGPRD antagonist activity, IP-One HTRF assay in CHO cells stably expressing human MRGPRD (versus 100 μM β-Alanine agonist)
pIC50: −log10 of the molar value.
Recorded pIC50 by entry

Ask: Value lookup for pIC50; key = COc1ncc(-c2ccc(-n3nnc(C(=O)Nc4ccncc4)c3C3CC3)cc2)cn1
Result: 5.52 to 6.00

* * *

- TARGET: human MRGPRD (Homo sapiens)
- ASSAY_NAME: MRGPRD antagonist activity, IP-One HTRF assay in CHO cells stably expressing human MRGPRD (versus 100 μM β-Alanine agonist)
Recorded IC50 by entry

Sample records with IC50:
[
  {
    "MOLECULE": "O=C(Nc1ccncc1)c1nnn(-c2ccc(-c3cnn(Cc4ccccc4)c3)cc2)c1C1CC1 [Compound 7-20]",
    "IC50": "< 100 nM"
  },
  {
    "MOLECULE": "Cc1c(NC(=O)c2nnn(-c3ccc(-c4ccccc4)cc3)c2C2CC2)nn(C)c1C [Compound 14-71]",
    "IC50": "> 3000 nM"
  },
  {
    "MOLECULE": "Cc1csc(CNC(=O)c2nnn(-c3ccc(-c4ccccc4)cc3)c2C2CC2)n1 [Compound 14-21]",
    "IC50": "500 to 1000 nM"
  },
  {
    "MOLECULE": "Cc1cc(NC(=O)c2nnn(-c3ccc(-c4ccc(F)cc4)cc3)c2C2CC2)ccn1 [Compound 7-81]",
    "IC50": "100 to 500 nM"
  },
  {
    "MOLECULE": "O=C(Nc1ccncc1)c1nnn(-c2ccc3c(c2)CCC3)c1C1CC1 [Compound 5-1]",
    "IC50": "> 3000 nM"
  }
]

Ask: Value lookup for IC50; key = Cc1cnc(-c2ccc(-n3nnc(C(=O)Nc4ccncc4)c3C3CC3)cc2)s1 [Compound 7-89]
Result: 100 to 500 nM

* * *

Recorded pIC50 by entry
- TARGET: UniProt:Q8TDS7
- ASSAY_NAME: MRGPRD antagonist activity, IP-One HTRF assay in CHO cells stably expressing human MRGPRD (versus 100 μM β-Alanine agonist)
pIC50: −log10 of the molar value.

[
  {
    "COMPOUND": "Cc1nn(-c2ccccc2)c(C)c1-c1ccc(-n2nnc(C(=O)Nc3ccncc3)c2C2CC2)cc1 [Compound 7-11]",
    "pIC50": "> 7.00"
  },
  {
    "COMPOUND": "Cc1ccc(C2(NC(=O)c3nnn(-c4ccc(-c5ccc(C#N)cc5)cc4F)c3C3CC3)CC2)cn1 [Compound 7-227]",
    "pIC50": "6.30 to 7.00"
  },
  {
    "COMPOUND": "COc1cc(-c2ccc(C#N)cc2)ccc1-n1nnc(C(=O)Nc2ccnc(C)c2)c1C1CC1 [Compound 7-228]",
    "pIC50": "6.30 to 7.00"
  }
]

Ask: Value lookup for pIC50; key = Cc1cc(NC(=O)c2nnn(-c3ccc(-c4ccc(C#N)cc4)cc3OC(F)(F)F)c2C2CC2)ccn1 [Compound 7-53]
Result: 6.30 to 7.00

Ask: Here is the next compound: Cc1ncccc1CNC(=O)c1nnn(-c2ccc(-c3ccc(C#N)c(F)c3)cc2)c1C1CC1 [Compound 16-1]
Result: > 7.00

Ask: Here is the next compound: CC(=O)c1ccc(-c2ccc(-n3nnc(C(=O)Nc4ccncc4)c3C3CC3)cc2)cc1F [Compound 7-104]
Result: 6.30 to 7.00
